The values you see were collected from PubChem BioAssay (NCI).

Tested on: SK-OV-3 ovarian
EXPERIMENT_DESCRIPTION: NCI tumour cell line growth inhibition, 48 h
OBSERVED_PROPERTY: TGI

[[record]]
compound = "CN1CN(c2ccccc2)C2(CCN(C3Nc4ccccc4O3)CC2)C1=O (stereo not drawn)"
result = "48.1 µM"


I need TGI for every entry listed below, if you could help.
1. CON=C1C[C@]2(C[C@@H]3C[C@@H](C/C=C(\C)C[C@@H](C)/C=C/C=C4\CO[C@@H]5[C@H](O)C(C)=C[C@@H](C(=O)O3)[C@]45O)O2)O[C@H](/C(C)=C/C(C)C)[C@H]1C
2. COc1ccc(N=C(CS(=O)c2ccc(C)cc2)C(F)(F)F)cc1 (stereo not drawn)

Result:
["28.5 µM", "> 100 µM"]

I need TGI for every entry listed below, if you could help.
1. Clc1ccc(OCc2nnc3sc(SSc4nn5c(COc6ccc(Cl)cc6)nnc5s4)nn23)cc1
2. Nc1c(C(=O)c2ccc(C#CCN3CCOCC3)cc2)cnn1-c1ccc(F)cc1
3. COC(O)C(=O)c1c2c(cc3c1CCC3)CCC2 (stereo not drawn)
4. O=C(O)C1CC(C2CCCCN2)CN2CCCCC12 (stereo not drawn)
5. O=C(NC1CCN(Cc2ccccc2)CC1)c1cccc(I)c1

Result:
1: > 100 µM; 2: > 25 µM; 3: > 100 µM; 4: > 100 µM; 5: 42.8 µM

====

Tested on: MDA-MB-435
EXPERIMENT_DESCRIPTION: NCI tumour cell line growth inhibition, 48 h
OBSERVED_PROPERTY: TGI

[[record]]
compound = "CC(=O)Nc1ncc2c(n1)-c1ccccc1OC2c1ccccc1 (stereo not drawn)"
result = "> 100 µM"

[[record]]
compound = "O=C1CNc2cc(N3CCOCC3)ccc2N1"
result = "> 100 µM"


From here, focus on the item given below.
Problem: Missing value: TGI, MDA-MB-435, entry COc1ccc(-c2[nH]c(-c3ccc(OC)cc3)c(-c3ccccn3)c2-c2ccccn2)cc1 . Fill in?
Result: > 100 µM

====

System: NCI-H226 lung
EXPERIMENT_DESCRIPTION: NCI tumour cell line growth inhibition, 48 h
OBSERVED_PROPERTY: TGI

[[record]]
compound = "O=C(O)c1ccc(NCc2nc3ccccc3[nH]2)cc1"
result = "> 100 µM"

[[record]]
compound = "Nc1nc(=S)c2ncn(C3OC(CO)C(O)C3O)c2[nH]1 (stereo not given)"
result = "> 100 µM"

[[record]]
compound = "NC(=O)c1cc(I)ccc1NC(=O)/C=C/c1ccccc1Cl"
result = "> 60.6 µM"

[[record]]
compound = "C1=Nc2ccccc2Cn2nncc21"
result = "> 100 µM"


From here, focus on the item given below.
Problem: Param item = Cc1ccccc1C=NC12CC3CC(CC(C3)C1)C2 ; retrieve measured TGI.
Result: > 100 µM

====

Exercise: for every item that follows, state its recorded GI50.
System: SK-OV-3 ovarian
EXPERIMENT_DESCRIPTION: NCI tumour cell line growth inhibition, 48 h

Consider the following illustrative entries.
[[record]]
compound = "Clc1ccc(C2CC(c3cccc(Nc4ccncc4)c3)=NN2c2ccccc2)cc1 (stereo unspecified)"
target_or_system = "SK-OV-3 ovarian"
result = "2.57 µM"

[[record]]
compound = "COc1cc(N2CCN(C(C)C)CC2)ccc1Nc1nc(Nc2ccc(F)cc2C(=O)NCC(O)CO)c2cc[nH]c2n1 (stereo unspecified)"
target_or_system = "SK-OV-3 ovarian"
result = "6.85 µM"

[[record]]
compound = "C=C1C(=O)O[C@@H]2C[C@@H]1CC[C@]1(C)O[C@H]1CC/C(C)=C/CC[C@@]2(C)O"
target_or_system = "SK-OV-3 ovarian"
result = "25.5 µM"

[[record]]
compound = "NC(=O)c1cc(I)ccc1NC(=O)/C=C/c1ccccc1Cl"
target_or_system = "SK-OV-3 ovarian"
result = "0.529 µM"


I need GI50 for every entry listed below, if you could help.
1. COc1ccc(/C(=C/c2ccc3ccccc3c2)c2nn[nH]n2)cc1OC
2. CCC[CH2][Sn]1([CH2]CCC)[O]C(=O)CN=C(C)c2ccccc2[O]1

Result:
3.63 µM
2.37 µM
